Test Name: Binding affinity to rat/bovine recombinant S100B at weaker site expressed in Escherichia coli [HMS174(DE3)strain] by NMR spectroscopy
Property Measured: pKd
The quantity pKd is defined as the negative base-10 logarithm of the molar concentration.

In: Query (compound): N=C(N)c1ccc(OCCCCCOc2ccc(C(=N)N)cc2)cc1 ; field requested: pKd
Out: 4.40

###

Test Name: Binding affinity to rat/bovine recombinant S100B expressed in Escherichia coli [HMS174(DE3)strain] by NMR spectroscopy
Experimental Context: read-out: Kd
Property Measured: Kd (µM)
Your answer is read as µM, so omit the unit and give the number.

In: Query (compound): N=C(N)c1ccc(OCCCCCCCOc2ccc(C(=N)N)cc2)cc1 ; field requested: Kd
Out: 6.9

Origin of the recorded values: ChEMBL document CHEMBL2203086
